Tested on: SW-620
Assay: in vitro anti-cancer screen, Sulforhodamine B method
Assay type: cell-based, human
Conditions: COLON: SW-620; 48 h incubation; read-out: GROWTH INHIBITION (GI 50)
VALUE KIND: GI50 (µM)
Entry rule: numbers only, all in µM.

Fill in: GI50 of C=C1CCC2C(C)(COC(C)=O)C(OC(C)=O)CCC2(C)C1CC(NCc1ccccc1)C1=CCOC1=O (stereo not shown) [Example 1] is ___ 4

Please answer likewise for CC(=O)OCC1(C)C(OC(C)=O)CCC2(C)C(CC(Sc3ccccc3)C3=CCOC3=O)C3(CCC12)CO3 (stereo not shown) [Example 70] 4

Another: C=C1CCC2C(C)(COC(C)=O)C(OC(C)=O)CCC2(C)C1CC(Sc1ccccc1)C1=CCOC1=O (stereo not shown) [Example 58] 5

Alright, here's another molecule for you.
What value of measured GI50 is listed for C=C1CCC2C(C)(COC(C)=O)C(OC(C)=O)CCC2(C)C1CC(NCc1ccc(OC)cc1)C1=CCOC1=O (stereo not shown) [Example 3] ? 3.5
